Molecular target: Full-length, GST-tagged, human CaMKIIδ (Homo sapiens)
Construct: Full-Length, Glutathione-S-Transferase(GST)-Tagged, Human CaMKIIδ was purchased from Carna Biosciences; purchased Carna Biosciences 02-111
Sequence (Q13557 1-478 isoform Q13557-12): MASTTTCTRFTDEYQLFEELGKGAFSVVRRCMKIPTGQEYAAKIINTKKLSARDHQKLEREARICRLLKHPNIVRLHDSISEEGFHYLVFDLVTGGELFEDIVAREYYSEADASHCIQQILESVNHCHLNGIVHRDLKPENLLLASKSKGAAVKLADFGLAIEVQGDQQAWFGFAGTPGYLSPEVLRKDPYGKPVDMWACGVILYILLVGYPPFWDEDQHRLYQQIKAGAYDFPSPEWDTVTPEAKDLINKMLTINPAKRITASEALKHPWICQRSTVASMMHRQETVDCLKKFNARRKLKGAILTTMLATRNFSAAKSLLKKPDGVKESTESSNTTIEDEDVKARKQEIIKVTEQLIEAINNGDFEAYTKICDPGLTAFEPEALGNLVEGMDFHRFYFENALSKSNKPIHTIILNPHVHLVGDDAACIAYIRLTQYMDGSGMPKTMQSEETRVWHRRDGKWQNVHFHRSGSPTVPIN
Test: CaMKIIδ binding assay (TR-FRET with BODIPY-labeled probe ligand)
Settings: Table 2; CaMKIIδ binding assay, activity given as class A/B/C
pIC50: −log10 of the molar value.
The following molecules are listed with their measured pIC50 values.
result-type: pIC50

smiles-data: C[C@@H](Cn1cnnn1)Oc1cc(-c2cnc(Nc3cn([C@H]4CC[C@H](N5CC(F)C5)CC4)nc3OC3COC3)nc2)ccc1Cl
result-type: pIC50
data-value: > 8.00
--
smiles-data: C[C@@H](Cn1cnnn1)Oc1cc(-c2cnc(Nc3cn(CC4(O)CCN(C(=O)OC(C)(C)C)CC4)nc3C(F)(F)F)nc2)ccc1Cl
result-type: pIC50
data-value: 7.00 to 8.00
--
smiles-data: C[C@@H](Cn1cc(F)cn1)Oc1cc(-c2cnc(Nc3cn([C@H]4CC[C@@H](N5CCOCC5)CC4)nc3OCC(F)(F)F)nc2)ccc1C#N
result-type: pIC50
data-value: 7.00 to 8.00
--
smiles-data: C[C@@H](Cn1cnnn1)Oc1cc(-c2cnc(Nc3n[nH]cc3Cl)nc2)ccc1Cl
result-type: pIC50
data-value: 7.00 to 8.00
--
smiles-data: C[C@@H](Cn1cnnn1)Oc1cc(-c2cnc(Nc3cn([C@H]4CC[C@H](N5CC(C)(O)C5)CC4)nc3C(F)(F)F)nc2)ccc1Cl
result-type: pIC50
data-value: > 8.00
--
smiles-data: C[C@@H](Cn1cnnn1)Oc1cc(-c2cnc(Nc3cn(CC(C)(C)N)nc3C(F)(F)F)nc2)ccc1Cl
result-type: pIC50
data-value: > 8.00
--
smiles-data: C[C@@H](Cn1cnnn1)Oc1cc(-c2cnc(Nc3cn(C4CCN(C(=O)OC(C)(C)C)CC4)nc3C(F)F)nc2)ccc1Cl
result-type: pIC50
data-value: 7.00 to 8.00
--
smiles-data: CCn1cc(Nc2ncc(-c3ccc(Cl)c(O[C@@H](C)Cn4cnnn4)c3)cn2)c(C(=O)O)n1
result-type: pIC50
data-value: 7.00 to 8.00
--
smiles-data: C[C@@H](Cn1cnnn1)Oc1cc(-c2cnc(Nc3cn(CCCCO)nc3OCC(F)(F)F)nc2)ccc1Cl
result-type: pIC50
data-value: > 8.00
--
smiles-data: CCOC(=O)c1nn(CC)cc1Nc1ncc(-c2ccc(Cl)c(O[C@@H](C)Cn3cnnn3)c2)cn1
result-type: pIC50
data-value: > 8.00
--
smiles-data: C[C@@H](Cn1cnnn1)Oc1cc(-c2cnc(Nc3cn(C4CC5(C4)CN(C4COC4)C5)nc3OCC(F)(F)F)nc2)ccc1Cl
result-type: pIC50
data-value: > 8.00
--
smiles-data: C[C@@H](Cn1cnnn1)Oc1cc(-c2cnc(Nc3cn([C@H]4CC[C@@H](N5CC(C)(O)C5)CC4)nc3C(F)(F)F)nc2)ccc1Cl
result-type: pIC50
data-value: > 8.00
--
smiles-data: C[C@@H](Cn1cnnn1)Oc1cc(-c2cnc(Nc3cn([C@H]4CC[C@H](N5CCC[C@H]5CO)CC4)nc3OC[C@@H]3CC3(F)F)nc2)ccc1Cl
result-type: pIC50
data-value: > 8.00
